- Run description: recombinant barcode read abundance after kanamycin selection (control-corrected) (log10(CPM+1)); higher = more efficient recombination; sequences stand for … in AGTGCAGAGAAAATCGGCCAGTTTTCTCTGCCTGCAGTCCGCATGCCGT…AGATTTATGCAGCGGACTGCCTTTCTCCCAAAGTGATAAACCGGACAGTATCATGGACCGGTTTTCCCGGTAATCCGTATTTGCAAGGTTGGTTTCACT; site = the 11-nt target
The following sequences are listed with their measured recombinant barcode read abundance (log10) values.
Quantity kind: recombinant barcode read abundance (log10)

Residue string: AGTCGATCTTGGGTTCTAACCTGTTGCTT (site ACTCGATCTAG)
Recorded result: 0.0101
//
Residue string: TGTTCAGCTTGGGTTCTAACCTGTTGCCT (site CACAGGCCTCT)
Recorded result: 0.0146
//
Residue string: GTCGCTACTTGGGTTCTAACCTGTTGCCG (site GTCCCTACTCG)
Recorded result: 0.0655
//
Residue string: CTAATGTCTTGGGTTCTAACCTGTTGCCT (site CTAATGTCTTG)
Recorded result: 0.0145
//
Residue string: CTAGGATCTTGGGTTCTAACCTGTTGCGT (site CTAGGATCTAC)
Recorded result: 2.77
//
Residue string: CTAGACTCTTGGGTTCTAACCTGTTGCTG (site CTAGACTCTGA)
Recorded result: 0.076
//
Residue string: GTTTGATCTTGGGTTCTAACCTGTTGCCT (site GTTTGGTCTAG)
Recorded result: 0.212
//
Residue string: CCTTGGTCTTGGGTTCTAACCTGTTGCCT (site GCTTGGCCTAG)
Recorded result: 0.107
//
Residue string: CGTTCGACTTGGGTTCTAACCTGTTGCCT (site CGTTCGACTAG)
Recorded result: 0.0748
//
Residue string: GAAAGTTCTTGGGTTCTAACCTGTTGCCT (site GTAAGTTCTAG)
Recorded result: 0.153
//
Residue string: CTCGTGTCTTGGGTTCTAACCTGTTGCAG (site CTCGTGTCTCT)
Recorded result: 1.95
//
Residue string: AGGCTCCCTTGGGTTCTAACCTGTTGCCT (site AGCCTCCCTAG)
Recorded result: 0.0453
//
Residue string: ATAGGGTCTTGGGTTCTAACCTGTTGCCT (site AGAGGGTCTAG)
Recorded result: 0.211
//
Residue string: TAGGCCACTTGGGTTCTAACCTGTTGCCT (site TAGGCCACTAA)
Recorded result: 0.0204
//
Residue string: GACAGACCTTGGGTTCTAACCTGTTGCCT (site GACAGACCTAG)
Recorded result: 1.72
//
Residue string: ACCGCGTCTTGGGTTCTAACCTGTTGCAT (site ACCGCGTCTAT)
Recorded result: 0.521
//
Residue string: GTGAGGACTTGGGTTCTAACCTGTTGCCA (site GTAACGACTTG)
Recorded result: 0.252
//
Residue string: GTTGACCCTTGGGTTCTAACCTGTTGCCT (site GTTGACCCTAG)
Recorded result: 2.2
//
Residue string: TTCCCGCCTTGGGTTCTAACCTGTTGCCT (site TTCACGCCTAG)
Recorded result: 0.0618
//
Residue string: AAGCGTGCTTGGGTTCTAACCTGTTGCCT (site AAGCGTGCTAG)
Recorded result: 1.7
//
Residue string: TAGCCATCTTGGGTTCTAACCTGTTGCCT (site TATCCATCTAG)
Recorded result: 0.0171
//
Residue string: CTTTGTACTTGGGTTCTAACCTGTTGCCT (site CCTTGTACTAG)
Recorded result: 0.265
//
Residue string: CCGTAATCTTGGGTTCTAACCTGTTGCCT (site CCGTAAGCTAG)
Recorded result: 0.211
//
Residue string: GCTGAGGCTTGGGTTCTAACCTGTTGCCA (site CTCTGCTCTGA)
Recorded result: 0.165
//
Residue string: ATCGGAGCTTGGGTTCTAACCTGTTGCCT (site ATCGGAGCTAG)
Recorded result: 0.775
//
Residue string: ATCAAAGCTTGGGTTCTAACCTGTTGCCT (site ATCAAAGCTAG)
Recorded result: 0.154
//
Residue string: GTAAGGACTTGGGTTCTAACCTGTTGCTT (site GTAAGTACTAA)
Recorded result: 0.0109
//
Residue string: GCTTGAGCTTGGGTTCTAACCTGTTGCCT (site GCCTGAGCTAG)
Recorded result: 0.158
//
Residue string: TAACCTTCTTGGGTTCTAACCTGTTGCCT (site TAACCTACTAG)
Recorded result: 0
//
Residue string: CTAAGCGCTTGGGTTCTAACCTGTTGCCT (site CTAAGCGCTAG)
Recorded result: 0.346
//
Residue string: GGCCTGCCTTGGGTTCTAACCTGTTGCCT (site GGCCTGCCTAG)
Recorded result: 1.31
//
Residue string: AGGTTCCCTTGGGTTCTAACCTGTTGCTT (site AGGTTCCCTGA)
Recorded result: 0.621
//
Residue string: AGGAGCCCTTGGGTTCTAACCTGTTGCCT (site AGGAGCCCTTG)
Recorded result: 0.0624
//
Residue string: GTCTTATCTTGGGTTCTAACCTGTTGCCT (site GTCTCATCTAG)
Recorded result: 0.0374
//
Residue string: CGGCGTCCTTGGGTTCTAACCTGTTGCCT (site CGGCGTCCTAG)
Recorded result: 1.24
//
Residue string: CTACCACCTTGGGTTCTAACCTGTTGCCT (site CTACCATCTAG)
Recorded result: 0.214
//
Residue string: CCTAAGACTTGGGTTCTAACCTGTTGCCC (site CCTAAGACTGG)
Recorded result: 0.16
//
Residue string: CAGTAATCTTGGGTTCTAACCTGTTGCCT (site CAGTATTCTAG)
Recorded result: 0
//
Residue string: AGGTAGACTTGGGTTCTAACCTGTTGCCA (site AGGAAGACTTG)
Recorded result: 0.0263
//
Residue string: CTTCGAGCTTGGGTTCTAACCTGTTGCCG (site CTTCGAGCTCT)
Recorded result: 0.138
//
Residue string: GTGACCTCTTGGGTTCTAACCTGTTGCCT (site GCTACCTCTAG)
Recorded result: 0.0896
//
Residue string: TTCTGTGCTTGGGTTCTAACCTGTTGCCT (site TTCTGCGCTAG)
Recorded result: 0.0701

###

# recombinant barcode read abundance (log10) per entry
- Run description: recombinant barcode read abundance after kanamycin selection (control-corrected) (log10(CPM+1)); higher = more efficient recombination; sequences stand for … in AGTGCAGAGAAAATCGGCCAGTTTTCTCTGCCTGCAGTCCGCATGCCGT…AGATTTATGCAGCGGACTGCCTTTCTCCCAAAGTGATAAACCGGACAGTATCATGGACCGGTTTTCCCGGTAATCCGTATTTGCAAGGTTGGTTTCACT; site = the 11-nt target
Quantity kind: recombinant barcode read abundance (log10)

Residue string: GTTTACGCTTGGGTTCTAACCTGTTGCCT (site GTTTAAACTAG)
Recorded result: 0.0797

Residue string: ACTAGGACTTGGGTTCTAACCTGTTGCGC (site ACTAGGACTAC)
Recorded result: 0.571

Residue string: GACGAGTCTTGGGTTCTAACCTGTTGCTA (site GGCGAGTCTTA)
Recorded result: 0.154

Residue string: GGGTCCACTTGGGTTCTAACCTGTTGCGT (site GGGTCCACTAG)
Recorded result: 1.5

Residue string: TATTATACTTGGGTTCTAACCTGTTGCGT (site TATTATACTAA)
Recorded result: 0.116

Residue string: TAATTAGCTTGGGTTCTAACCTGTTGCCT (site TAAATAGCTAG)
Recorded result: 0.0142

Residue string: CTCTAGACTTGGGTTCTAACCTGTTGCCA (site CTCTATACTTG)
Recorded result: 0.0325

Residue string: ACAACGACTTGGGTTCTAACCTGTTGCCT (site ACAACGACTAG)
Recorded result: 0.689

Residue string: CATTGGACTTGGGTTCTAACCTGTTGCCT (site CACTGGACTAG)
Recorded result: 0.0737

Residue string: TAGAATCCTTGGGTTCTAACCTGTTGCAG (site TAGAATCCTAT)
Recorded result: 0.0897

###

- Run description: recombinant UMI read abundance after kanamycin selection (control-corrected) (log10(CPM+1)); higher = more efficient recombination; extreme values may be limits of the assay; sequences stand for … in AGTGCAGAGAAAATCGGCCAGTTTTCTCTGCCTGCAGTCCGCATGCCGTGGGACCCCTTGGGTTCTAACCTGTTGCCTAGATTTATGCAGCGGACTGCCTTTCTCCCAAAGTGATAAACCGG…AGGTTGGTTTCACT; site = the 11-nt donor
Please mark yes (1) if the recorded recombinant UMI read abundance (log10) is equal to or greater than 0.01, and no (0) if it falls below.

Residue string: GAGTATCCATGGACCGGTTTTCCCGGTAATCCGTATTTGCT (site GAGTATCCTAG)
Category: yes (1)

Residue string: GGGCATGCATGGACCGGTTTTCCCGGTAATCCGTATTTGAA (site GGGCATGCTTT)
Category: yes (1)

Residue string: GTCCACCCATGGACCGGTTTTCCCGGTAATCCGTATTTGTT (site GACCACCCTAA)
Category: yes (1)

Residue string: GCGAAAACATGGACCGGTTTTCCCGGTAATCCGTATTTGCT (site CCGAAAACTAG)
Category: no (0)

Residue string: GCCACCCCATGGACCGGTTTTCCCGGTAATCCGTATTTGTA (site GCCACACCTTA)
Category: yes (1)
